- System: FLK-1 receptor
- procedure details: FLK-1 Assay (cellular/catalytic ELISA, VEGF-stimulated phosphotyrosine)
- Type: cell-based
- Set-up: concentration or dose not given beside the values
- protocol conditions: protocol P.110
Please use Y whenever Flk Kinase % Inhibition (P.110) is not below -10%, and N whenever it is.

| compound | category |
| --- | --- |
| O=C1Nc2ccc(S(=O)(=O)N3CCOCC3)cc2C1=Cc1ccc(Cl)c(Cl)c1 | Y |
| Cc1c(Br)ccc2c1C(=Cc1cc(O)c(O)c(O)c1)C(=O)N2 | N |
| CN(C)CCCOc1ccc(C=C2C(=O)Nc3ccc(I)cc32)cc1 | N |
| O=C1Nc2ccc(I)cc2C1=Cc1ccc(CO)o1 | Y |
| COC1CCCN1C=C1C(=O)Nc2ccc(S(=O)(=O)Nc3ccc(C(F)(F)F)cc3)cc21 (centres unmarked) | Y |
